- Tested on: dandelion
- EXPERIMENT_NOTES: Greenhouse pot test, postemergent spray, visual control rating converted to percent control
- Format: in vivo
- SETTINGS: Test 4, 72 HAT
- Description: Pots of crabgrass, dandelion, white clover, and plantain grown in greenhouse soiless growth media were sprayed with a greenhouse pot sprayer at 43.46 gallons of spray solution/acre and allowed to stand in the greenhouse. […]
READOUT_TYPE: % Control Dandelion (%)
State just the number; it will be interpreted in %.

For O=C(O)c1c(Cl)ccc2cc(Cl)cnc12 [Quinclorac @ 0.75 lbs/A] , what is its reported % Control Dandelion? 22.2

For `Cc1cc(Cl)ccc1OCC(=O)OCCCCCC(C)C` , what is its reported % Control Dandelion? 55.6

For O=C(O)c1c(Cl)ccc2cc(Cl)cnc12 [Quinclorac @ 0.18 lbs/A] , what is its reported % Control Dandelion? 22.2

For O=C(O)c1c(Cl)ccc2cc(Cl)cnc12 [Quinclorac @ 0.375 lbs/A] , what is its reported % Control Dandelion? 22.2

For Cc1nn(-c2cc(CC(Cl)C(=O)O)c(Cl)cc2F)c(=O)n1C(F)F (stereo not drawn) [Carfentrazone @ 0.01 lbs/A] , what is its reported % Control Dandelion? 33.3

For Cc1nn(-c2cc(CC(Cl)C(=O)O)c(Cl)cc2F)c(=O)n1C(F)F (stereo not drawn) [Carfentrazone @ 0.02 lbs/A] , what is its reported % Control Dandelion? 55.6

---

- Test system: white clover
- EXPERIMENT_NOTES: Greenhouse pot test, postemergent spray, visual control rating converted to percent control
- Format: in vivo
- SETTINGS: Test 3, 72 HAT
List of % Control Clover values.
State just the number; it will be interpreted in %.

Some solved cases for reference:
In [3]: df
Out[3]:
                                   molecule      readout_type  recorded_number
0           Cc1cc(Cl)ccc1OCC(=O)OCCCCCC(C)C  % Control Clover             44.4
1  O=C(O)c1c(Cl)ccc2cc(Cl)cnc12 [Quinclorac @ 0.375 lbs/A]  % Control Clover             22.2
2  Cc1nn(-c2cc(NS(C)(=O)=O)c(Cl)cc2Cl)c(=O)n1C(F)F [Sulfentrazone @ 0.02 lbs/A]  % Control Clover             22.2
3  Cc1nn(-c2cc(NS(C)(=O)=O)c(Cl)cc2Cl)c(=O)n1C(F)F [Sulfentrazone @ 0.03 lbs/A]  % Control Clover             33.3

For O=C(O)c1c(Cl)ccc2cc(Cl)cnc12 [Quinclorac @ 0.18 lbs/A] , what is its reported % Control Clover? 22.2

For O=C(O)c1c(Cl)ccc2cc(Cl)cnc12 [Quinclorac @ 0.75 lbs/A] , what is its reported % Control Clover? 22.2

---

- Test system: plantain
- EXPERIMENT_NOTES: Greenhouse pot test, postemergent spray, visual control rating converted to percent control
- Type: in vivo
- SETTINGS: Test 3, 14 DAT; scale 1=no control, 9=death of plant
List of Control (1-9) Plantain values.
Hey, just send me the number, nothing else.

Recall the recorded Control (1-9) Plantain for Cc1nn(-c2cc(NS(C)(=O)=O)c(Cl)cc2Cl)c(=O)n1C(F)F [Sulfentrazone @ 0.03 lbs/A] with plantain and state it. 8

Recall the recorded Control (1-9) Plantain for O=C(O)c1c(Cl)ccc2cc(Cl)cnc12 [Quinclorac @ 0.75 lbs/A] with plantain and state it. 5

---

- System: dandelion
- EXPERIMENT_NOTES: Greenhouse pot test, postemergent spray, visual control rating converted to percent control
- Type: in vivo
- SETTINGS: Test 3, 24 HAT; scale 1=no control, 9=death of plant
List of Control (1-9) Dandelion values.
Hey, just send me the number, nothing else.

Some solved cases for reference:
>>> df
                                   molecule             readout_type  recorded_number
0  Cc1nn(-c2cc(NS(C)(=O)=O)c(Cl)cc2Cl)c(=O)n1C(F)F [Sulfentrazone @ 0.02 lbs/A]  Control (1-9) Dandelion                3
1  O=C(O)c1c(Cl)ccc2cc(Cl)cnc12 [Quinclorac @ 0.18 lbs/A]  Control (1-9) Dandelion                1
2  O=C(O)c1c(Cl)ccc2cc(Cl)cnc12 [Quinclorac @ 0.75 lbs/A]  Control (1-9) Dandelion                1
3  O=C(O)c1c(Cl)ccc2cc(Cl)cnc12 [Quinclorac @ 0.375 lbs/A]  Control (1-9) Dandelion                1
4           Cc1cc(Cl)ccc1OCC(=O)OCCCCCC(C)C  Control (1-9) Dandelion                3

Would you kindly look at the next entry?
For Cc1nn(-c2cc(NS(C)(=O)=O)c(Cl)cc2Cl)c(=O)n1C(F)F [Sulfentrazone @ 0.03 lbs/A] , what is its reported Control (1-9) Dandelion? 3

---

List of % Control Clover values.
- Test system: white clover
- EXPERIMENT_NOTES: Greenhouse pot test, postemergent spray, visual control rating converted to percent control
- Assay type: in vivo
- SETTINGS: Test 4, 72 HAT
- Excerpt: Pots of crabgrass, dandelion, white clover, and plantain grown in greenhouse soiless growth media were sprayed with a greenhouse pot sprayer at 43.46 gallons of spray solution/acre and allowed to stand in the greenhouse. […]
State just the number; it will be interpreted in %.

>>> print(df.to_string())
                                   compound      readout_type  unit_symbol  recorded_number
0  Cc1nn(-c2cc(CC(Cl)C(=O)O)c(Cl)cc2F)c(=O)n1C(F)F (stereo not drawn) [Carfentrazone @ 0.02 lbs/A]  % Control Clover            %             44.4
1  O=C(O)c1c(Cl)ccc2cc(Cl)cnc12 [Quinclorac @ 0.18 lbs/A]  % Control Clover            %             22.2
2  Cc1cc(Cl)ccc1OCC(=O)OCCCCCC(C)C [MCPA IOE @ 1.10 lbs/A]  % Control Clover            %             55.6
3  O=C(O)c1c(Cl)ccc2cc(Cl)cnc12 [Quinclorac @ 0.375 lbs/A]  % Control Clover            %             22.2

For O=C(O)c1c(Cl)ccc2cc(Cl)cnc12 [Quinclorac @ 0.75 lbs/A] , what is its reported % Control Clover? 22.2

For Cc1nn(-c2cc(CC(Cl)C(=O)O)c(Cl)cc2F)c(=O)n1C(F)F (stereo not drawn) [Carfentrazone @ 0.01 lbs/A] , what is its reported % Control Clover? 44.4

---

- Tested on: dandelion
- EXPERIMENT_NOTES: Greenhouse pot test, postemergent spray, visual control rating converted to percent control
- Assay type: in vivo
- SETTINGS: Test 3, 14 DAT
List of % Control Dandelion values.
State just the number; it will be interpreted in %.

                                   molecule        tgt  unit_symbol  recorded_number
0  O=C(O)c1c(Cl)ccc2cc(Cl)cnc12 [Quinclorac @ 0.75 lbs/A]  dandelion            %             44.4
1  Cc1nn(-c2cc(NS(C)(=O)=O)c(Cl)cc2Cl)c(=O)n1C(F)F [Sulfentrazone @ 0.03 lbs/A]  dandelion            %             77.8
2  Cc1nn(-c2cc(NS(C)(=O)=O)c(Cl)cc2Cl)c(=O)n1C(F)F [Sulfentrazone @ 0.02 lbs/A]  dandelion            %             77.8

For `Cc1cc(Cl)ccc1OCC(=O)OCCCCCC(C)C` , what is its reported % Control Dandelion? 77.8

For O=C(O)c1c(Cl)ccc2cc(Cl)cnc12 [Quinclorac @ 0.18 lbs/A] , what is its reported % Control Dandelion? 33.3

For O=C(O)c1c(Cl)ccc2cc(Cl)cnc12 [Quinclorac @ 0.375 lbs/A] , what is its reported % Control Dandelion? 44.4

---

- Tested on: white clover
- EXPERIMENT_NOTES: Greenhouse pot test, postemergent spray, visual control rating converted to percent control
- Type: in vivo
- SETTINGS: Test 3, 14 DAT
READOUT_TYPE: % Control Clover (%)
State just the number; it will be interpreted in %.

Some solved cases for reference:
                                   compound      readout_type  recorded_number
0  O=C(O)c1c(Cl)ccc2cc(Cl)cnc12 [Quinclorac @ 0.75 lbs/A]  % Control Clover             55.6
1  Cc1nn(-c2cc(NS(C)(=O)=O)c(Cl)cc2Cl)c(=O)n1C(F)F [Sulfentrazone @ 0.02 lbs/A]  % Control Clover             44.4
2  Cc1nn(-c2cc(NS(C)(=O)=O)c(Cl)cc2Cl)c(=O)n1C(F)F [Sulfentrazone @ 0.03 lbs/A]  % Control Clover             55.6
3  O=C(O)c1c(Cl)ccc2cc(Cl)cnc12 [Quinclorac @ 0.18 lbs/A]  % Control Clover             44.4
4  O=C(O)c1c(Cl)ccc2cc(Cl)cnc12 [Quinclorac @ 0.375 lbs/A]  % Control Clover             55.6

Would you kindly look at the next entry?
For Cc1cc(Cl)ccc1OCC(=O)OCCCCCC(C)C [MCPA IOE @ 1.10 lbs/A] , what is its reported % Control Clover? 88.9

FYI, the data here is from patent US20040266623A1.
